# tested.target: T1, caspase-3 (UniProt P42574 29-277, limits assumed)
# T1 sequence (looked up): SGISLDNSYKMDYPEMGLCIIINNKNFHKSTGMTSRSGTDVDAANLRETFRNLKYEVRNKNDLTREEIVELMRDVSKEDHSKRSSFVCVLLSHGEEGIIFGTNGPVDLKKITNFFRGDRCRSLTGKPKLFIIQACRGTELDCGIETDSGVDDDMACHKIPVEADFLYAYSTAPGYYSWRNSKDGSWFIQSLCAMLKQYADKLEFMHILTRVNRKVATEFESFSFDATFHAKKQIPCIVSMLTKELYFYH
# run.description: cell-based or functional assay
Numbered stars: 1 amine (or outer) side, 2 acyl side, 3 side chain; on linkers, the order of the positions; unused ones are H or OH. Square brackets hold non-standard residues; d marks the D form. * marks the point of attachment. AAsp = aza-Asp, O=C(N(CC(=O)[*:3])N[*:1])[*:2]; azaAsp = O=C(N(CC(=O)[*:3])N[*:1])[*:2]; PhPr = N-terminal cap as named (PhPr); Cbz = O=C(OCc1ccccc1)*
Hi! Just check whether k2 is below 4000 M⁻¹ s⁻¹. Below gives true (1), equal or above gives false (0).

Consider the following illustrative entries.
binder="Cbz-IET[azaAsp]-{(2S,3S)‑EP‑CON(CH2Ph)2} [Cbz-Ile-Glu-Thr-AAsp-(2S,3S)-EP-CON(CH2Ph)2]" group="true (1)"
binder="Cbz-IET[azaAsp]-{(2S,3S)‑EP‑CON(CH3)CH2Ph} [Cbz-Ile-Glu-Thr-AAsp-(2S,3S)-EP-CON(CH3)CH2Ph]" group="false (0)"
binder="PhPr-Val-Ala-[AAsp]-{(2S,3S)‑EP‑CON(CH2CH2CH2CH3)2} [PhPr-Val-Ala-AAsp-(2S,3S)-EP-CON(CH2CH2CH2CH3)2]" group="true (1)"
binder="PhPr-Val-Ala-[AAsp]-{(2S,3S)‑EP‑CON(CH3)CH2Ph} [PhPr-Val-Ala-AAsp-(2S,3S)-EP-CON(CH3)CH2Ph]" group="true (1)"

**Q:** Dear colleague, could you confirm whether k2 of PhPr-Val-Ala-[AAsp]-{(2S,3S)‑EP‑CON(CH2Ph)2} [PhPr-Val-Ala-AAsp-(2S,3S)-EP-CON(CH2Ph)2] falls below 4000 M⁻¹ s⁻¹? Thanks.
**A:** true (1)
